# assay target: Dipeptidyl peptidase 2 (Homo sapiens)
observation type: IC50

Exam item: // fetch IC50 given entry CC(C)(C)OC(=O)NC12CC3CC(CC(N)(C3)C1)C2
Marked response: > 5 µM

Each recorded value in this set is attributed to BindingDB's records for patent US20250353833.
